assay comment: NCATS anti-infectives library activity on HEK293 viability as a counter-qHTS vs the C. elegans viability qHTS (AID 1745854);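 further: HEK293 cells exposed to compounds for 24 hr before the viability read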
applied conditions: HEK293 viability counter-screen; series mostly up to 41.8 µM
Experimental: Assay Development and Screening Technology Laboratory (ADST) National Center for Advancing Translational Sciences (NCATS), Rockville, MD National Institute of Health (NIH), Bethesda, Maryland […] 1. […] P. (2006) Quantitative high-throughput screening: A titration-based approach that efficiently identifies biological activities in large chemical libraries, P Natl Acad Sci USA 103, 11473-11478. […] SEQUENCE No. (e.g., 1, 2, 3, etc.); […] (e.g., C. elegans, Compounds, Incubation, Read, etc.); VALUE and DESCRIPTION. […]
Inconclusive results are not listed. Activity calls are given as the source filed them. The call rests on the fitted dose curve; in most records, active means well fitted cell-killing curve with a large enough effect; inconclusive means small, poorly fitted or top-dose-only effect; inactive means flat fitted curve, though single readings scatter.
Respond using exactly one of the listed classes: true for active, false for inactive

Use these answered entries as a reference point.
Inquiry: Can you look up the reported call for CN1CCc2nc(C(=O)N[C@@H]3C[C@@H](C(=O)N(C)C)CC[C@@H]3NC(=O)C(=O)Nc3ccc(Cl)cn3)sc2C1 for me?
Reply text: false

Inquiry: Tell me the recorded outcome of this test for CS(=O)(=O)c1ccc(-c2nnc(/C=C/c3nnc(-c4ccc(C#N)cc4)o3)n2-c2ccccc2Cl)nc1 .
Reply text: false

Inquiry: Test call for this compound, please: CC(C)c1cc(C(=O)N2CC[C@H](NC(=O)C3CC3)C2)n[nH]1
Reply text: false

Inquiry: For this compound, state the assay outcome: Cc1cc(C)cc(C(=O)NOCCCCCC(=O)NO)c1
Reply text: false

Inquiry: Dear all, I need the recorded test outcome for Cc1ccc(NC(=O)C(=O)NC2CC(C)(C)NC(C)(C)C2)cc1 , thank you.
Reply text: false

---
Inquiry: Hi, do you know how O=C(/C=C/c1cccc(S(=O)(=O)Nc2ccccc2)c1)NO came out in this test?
Reply text: false

Inquiry: Just curious, what result did O=C(N/N=C/c1ccc(O)c(O)c1)c1cc2ccccc2cc1O get here?
Reply text: false

Inquiry: Answer briefly: the call reported for Nc1ncnc2c([C@@H]3N[C@H](CO)[C@@H](O)[C@H]3O)c[nH]c12 in this assay.
Reply text: false

Inquiry: Returns: the outcome recorded for Cc1cc(OCc2nnc(SC3CCCC3)n2-c2cccnc2)ccc1-c1ccc(S(C)(=O)=O)cc1 in this assay.
Reply text: true

Inquiry: Kindly provide the recorded test outcome for the following compound: [N-]=[N+]=N[C@]1(CO)O[C@@H](n2ccc(=O)[nH]c2=O)[C@@H](O)[C@@H]1O
Reply text: false

Inquiry: Please let me know the test result on file for O=C(COc1cccc2c(=O)[nH]ccc12)c1ccccc1 .
Reply text: false

Inquiry: Please let me know the test result on file for CCOCc1nc2c(N)nc3ccccc3c2n1CC(C)(C)O .
Reply text: false

Inquiry: Which outcome did this test record for the compound CCOc1cc2ncc(C#N)c(Nc3ccc(F)c(Cl)c3)c2cc1NC(=O)/C=C/CN(C)C ?
Reply text: false

Inquiry: Tell me the recorded outcome of this test for C[C@@]1(O)[C@H](O)[C@@H](CO)O[C@H]1n1ccc(N)nc1=O .
Reply text: false

Inquiry: Returns: the outcome recorded for C[C@H](NC(=O)CCc1nc2ccccc2c(=O)[nH]1)c1ccccc1 in this assay.
Reply text: false

Inquiry: How was CCO[C@@H]1OC(=O)C[C@@H]1NC(=O)[C@@H]1CCCN1C(=O)[C@@H](NC(=O)c1ccc(N)c(Cl)c1)C(C)(C)C classified in this test?
Reply text: false

Inquiry: For COc1c2c(cc3c1-c1c(cc4c(c1OC)OCO4)CC(C)C(C)C3)OCO2 (centres undefined) , which call appears in the assay record?
Reply text: false

Inquiry: How did this test come out for CC(C)C(NC(=O)c1ccc2ccccc2n1)C(=O)NC(CC(=O)O)C(=O)COc1c(F)cccc1F (centres undefined) ?
Reply text: false

Inquiry: Per the records of this test, what outcome belongs to CC(C)c1cc(C(=O)N2CC[C@@H](NC(=O)C3CC3)C2)n[nH]1 ?
Reply text: false

* * *

Each entry below lists one item and its recorded activity change, negative = cytotoxicity value.
Tested on: Es-2
assay comment: Primary qHTS to identify gynecologic anti-cancer compounds using libraries of approved drugs and bioactive compounds (AID 1345084); further: nearly all actives have a fitted effect of over 55% in size; on activity change, negative = cytotoxicity: on the % scale 0 is the no-effect control and ±100 the full control effect
applied conditions: Gynecologic cancer cell panel viability, ATPlite luminescence, 48 h; series mostly up to 57.5 µM
Results filed as inconclusive are left out. Calls of active or inactive are those of the source. Calls follow the shape of the dose curve; as a rule, active = well fitted cell-killing curve with a large enough effect; inconclusive = small, poorly fitted or top-dose-only effect, or effect the other way; inactive = flat fitted curve, though single readings scatter.

Examples with answers:
Inquiry: Query for Es-2: what activity change, negative = cytotoxicity does the record show for CC1(C)CC[C@]2(C(=O)O[C@@H]3O[C@H](CO)[C@@H](O)[C@H](O)[C@H]3O)CC[C@]3(C)C(=CCC4[C@@]5(C)CC[C@H](O[C@@H]6O[C@H](C(=O)O)[C@@H](O)[C@H](O)[C@H]6O)C(C)(C)C5CC[C@]43C)C2C1 (stereo partly specified) ?
Reply text: 6.53% [at 11.6 µM] (inactive)

Inquiry: Which activity change, negative = cytotoxicity is reported with Es-2 for this entry: C=CC1C(OC2OC(CO)C(O)C(O)C2O)OC=C(C(=O)OC)C1CC(=O)OCC1C(C)C(O)CC1C(CO)COC(=O)CC1C(C(=O)O)=COC(OC2OC(CO)C(O)C(O)C2O)/C1=C\C (stereo unspecified) ?
Reply text: -2.47% [at 11.6 µM] (inactive)

Inquiry: I'm curious: which activity change, negative = cytotoxicity was measured for C[C@@H]1O[C@@H](O[C@H]2[C@H](O[C@H]3[C@H](O[C@H]4CC[C@@]5(C)C(CC[C@]6(C)C5CC=C5[C@@H]7CC(C)(C)CC[C@]7(C(=O)O[C@@H]7O[C@H](CO)[C@@H](O[C@@H]8O[C@@H](C)[C@H](O)[C@@H](O)[C@H]8O)[C@H](O)[C@H]7O)CC[C@]56C)C4(C)C)OC[C@H](O)[C@@H]3O)O[C@H](CO)[C@@H](O)[C@@H]2O)[C@H](O)[C@H](O)[C@H]1O (stereo partly specified) tested on Es-2?
Reply text: -47.2% [at 6.55 µM] (inactive)

---
Inquiry: So what activity change, negative = cytotoxicity did C[C@@H]1O[C@@H](O[C@H]2[C@H](OC(=O)[C@]34CCC(C)(C)C[C@H]3C3=CCC5[C@@]6(C)C[C@H](O)[C@H](O[C@@H]7O[C@H](CO)[C@@H](O)[C@H](O)[C@H]7O)[C@@](C)(CO)C6[C@H](O)C[C@@]5(C)[C@]3(C)C[C@H]4O)OC[C@H](O)[C@@H]2O)[C@H](O)[C@H](O)[C@H]1O[C@@H]1OC[C@@H](O)[C@H](O[C@H]2OC[C@](O)(CO)[C@H]2O)[C@H]1O (stereo partly specified) get with Es-2?
Reply text: 1.52% [at 6.55 µM] (inactive)

Inquiry: Find the measured activity change, negative = cytotoxicity: item C[C@@H]1O[C@@H](O[C@H]2[C@H](O[C@H]3CC[C@@]4(C)C(CC[C@]5(C)C4CC=C4[C@@H]6CC(C)(C)CC[C@]6(C(=O)O[C@@H]6OC[C@H](O)[C@H](O)[C@H]6O[C@@H]6O[C@@H](C)[C@H](O[C@@H]7O[C@H](CO)[C@@H](O)[C@H](O)[C@H]7O)[C@H](O)[C@H]6O)[C@H](O)C[C@]45C)C3(C)C)O[C@H](CO)[C@@H](O[C@@H]3OC[C@@H](O)[C@H](O)[C@H]3O)[C@@H]2O)[C@H](O)[C@H](O)[C@H]1O (stereo partly specified) , target or system Es-2.
Reply text: 0.0947% [at 6.55 µM] (inactive)

Inquiry: Param readout= activity change, negative = cytotoxicity; system= Es-2; entry= C[C@@H]1O[C@@H](O[C@H]2[C@H](O[C@H]3[C@H](O)[C@@H](C(=O)O)O[C@@H](O[C@H]4CC[C@@]5(C)C(CC[C@]6(C)C5CC[C@]57OC[C@@]8(CCC(C)(C)CC85)[C@H](O)C[C@]76C)C4(C)C)[C@@H]3O[C@@H]3O[C@H](CO)[C@@H](O[C@@H]4OC[C@@H](O)[C@H](O)[C@H]4O)[C@H](O)[C@H]3O)O[C@H](CO)[C@H](O)[C@@H]2O)[C@H](O)[C@H](O)[C@H]1O (stereo partly specified) ; returns value.
Reply text: -2.01% [at 6.55 µM] (inactive)

* * *

System: Hek293T
assay comment: Primary qHTS to identify gynecologic anti-cancer compounds using libraries of approved drugs and bioactive compounds (AID 1345084); further: nearly all actives have a fitted effect of over 55% in size
applied conditions: Gynecologic cancer cell panel viability, ATPlite luminescence, 48 h, control line for the selectivity index; series mostly up to 57.5 µM
Inconclusive results are not listed. Activity calls are given as the source filed them. Calls follow the shape of the dose curve; as a rule, active = well fitted cell-killing curve with a large enough effect; inconclusive = small, poorly fitted or top-dose-only effect, or effect the other way; inactive = flat fitted curve, though single readings scatter.
Answer with one of the outcomes given here: active, inactive

Inquiry: Hello, I am checking results. What call was entered for Cn1c(=O)cc(N2CCCC(N)C2)n(Cc2cc(F)ccc2C#N)c1=O (configuration not stated) ?
Reply text: inactive

Inquiry: Per the records of this test, what outcome belongs to CCCNc1ccc2ncc(-c3ccc4[nH]ncc4c3)n2n1 ?
Reply text: active

Inquiry: Please share the test call associated with CC(=O)C1=CCC2C3CCC4CC(O[C@@H]5O[C@H](CO)[C@@H](O[C@@H]6O[C@@H](C)[C@H](O)[C@@H](O)[C@H]6O)[C@H](O)[C@H]5O[C@@H]5O[C@H](CO)[C@@H](O)[C@H](O)[C@H]5O)CCC4(C)C3CCC12C (some centres not stated) .
Reply text: inactive

Inquiry: // return assay outcome for C[C@@H]1O[C@@H](OC[C@H]2O[C@@H](OC(CCCCc3ccc(O)cc3)CCc3ccc(O)cc3)[C@H](O)[C@@H](O)[C@@H]2O)[C@H](O)[C@H](O)[C@H]1O (some centres not stated)
Reply text: inactive

Continuing:
Inquiry: Give the logged outcome of this assay for the following compound: COc1ccc(N2CCOCC2)c2sc(NC(=O)N3CCC(C)(O)CC3)nc12
Reply text: inactive

Inquiry: # lookup: test call for CCOc1cc(C(=O)N2CCC(N3CCN(C)CC3)CC2)ccc1Nc1ncc2c(n1)N(C1CCCC1)c1ccccc1C(=O)N2C
Reply text: inactive

Inquiry: Check the results log: what was the call for CC1(C)[C@@H](O)CC[C@]2(C)[C@H]3CC=C4[C@@H]5C[C@](C)(C(=O)O)CC[C@]5(C)CC[C@@]4(C)[C@]3(C)CC[C@@H]12 ?
Reply text: inactive

Data credit: PubChem BioAssay (NCATS)
